Where do these numbers come from? They come from ChEMBL document CHEMBL2029346.

test: Inhibition of chymotrypsin-like activity of proteasome by fluorogenic assay; format: subcellular
MEASURE_NAME: pIC50
The read-out pIC50 is expressed as -log10 of concentration in moles per litre.

Record excerpt, results attached:
> print(dat)
                                        mol  measured
1  Cn1nnnc1Sc1cc(NS(=O)(=O)c2cccs2)c2ccccc2c1O      5.38
2  O=S(=O)(Nc1cc(Sc2nnn[nH]2)c(O)c2ccccc12)c1cccs1      6.29
3  O=S(=O)(Nc1cc(Sc2nnn[nH]2)c(O)c2ccccc12)c1ccc(-c2ccc(C(F)(F)F)cc2)cc1      6.06
4  O=S(=O)(Nc1cc(Sc2nnn[nH]2)c(O)c2ccccc12)c1ccc(Cl)c(Cl)c1      6.27

In the following, a different compound is considered.
Task item: Could you tell me which pIC50 is on file for O=S(=O)(Nc1cc(Sc2nnn[nH]2)c(O)c2ccccc12)c1ccc(-c2ccccn2)s1 ?
Reply: 6.32

====

Recorded IC50, one value per entry.
assay: Inhibition of chymotrypsin-like activity of proteasome by fluorogenic assay; type: subcellular

Record excerpt, results attached:
> print(dat)
                                        mol     measured
1     O=S(=O)(Nc1cc(I)c(O)c2ccccc12)c1cccs1   > 30000 nM
2  O=S(=O)(Nc1cc(Sc2nnn[nH]2)c(O)c2ccccc12)c1ccc(Cl)s1       630 nM
3  O=S(=O)(Nc1cc(Sc2nnn[nH]2)c(O)c2ccccc12)c1ccc(-c2ccccc2)s1       230 nM
4  O=S(=O)(Nc1cc(Sc2ncn[nH]2)c(O)c2ccccc12)c1ccc(-c2ccc(F)cc2)cc1       180 nM
5  O=S(=O)(Nc1cc(SCCO)c(O)c2ccccc12)c1cccs1    > 5000 nM
6  O=S(=O)(Nc1cc(Sc2ncn[nH]2)c(O)c2ccccc12)c1ccn(S(=O)(=O)c2ccccc2)c1      1610 nM
7  O=C(O)CS(=O)(=O)c1cc(NS(=O)(=O)c2cccs2)c2ccccc2c1O  > 100000 nM
8  CCCCCc1ccc(S(=O)(=O)Nc2cc(Sc3nnn[nH]3)c(O)c3ccccc23)cc1       470 nM

Task item: Could you tell me which IC50 is on file for O=S(=O)(Nc1cc(Sc2ncn[nH]2)c(O)c2ccccc12)c1ccc2ccccc2c1 ?
Reply: 300 nM

Task item: // repeat for O=S(=O)(Nc1cc(Sc2nnn[nH]2)c(O)c2ccccc12)c1ccc(C2CCCCC2)cc1 and report
Reply: 230 nM

Task item: // repeat for O=S(=O)(Nc1cc(Sc2ncn[nH]2)c(O)c2ccccc12)c1ccc(-c2ccccc2)cc1 and report
Reply: 280 nM

Task item: // repeat for O=S(=O)(Nc1cc(Sc2nnn[nH]2)c(O)c2ccccc12)c1ccc(Cl)cc1 and report
Reply: 570 nM

====

assay: Inhibition of postglutamylpeptidase hydrolysis-like activity of proteasome by fluorogenic assay; assay type: subcellular
MEASURE_NAME: IC50

Task item: Could you tell me which IC50 is on file for O=C(O)CSc1cc(NS(=O)(=O)c2cccs2)c2ccccc2c1O ?
Reply: 8.1 µM

====

assay: Inhibition of trypsin-like activity of proteasome by fluorogenic assay; assay type: subcellular
Recorded log10(IC50), one value per entry.
A difference of one corresponds to tenfold IC50; all values are log10 with IC50 in nM.

Record excerpt, results attached:
> print(dat)
                                        mol  measure.name  measured
1  O=S(=O)(Nc1cc(Sc2ncn[nH]2)c(O)c2ccccc12)c1ccc(C2CCCCC2)cc1   log10(IC50)      3.85
2  O=S(=O)(Nc1cc(Sc2nnn[nH]2)c(O)c2ccccc12)c1ccc(-c2ccccc2)cc1   log10(IC50)      3.68

Task item: Could you tell me which log10(IC50) is on file for O=S(=O)(Nc1cc(Sc2nnn[nH]2)c(O)c2ccccc12)c1ccc(-c2ccccn2)s1 ?
Reply: 3.19

Task item: // repeat for O=S(=O)(Nc1cc(Sc2nnn[nH]2)c(O)c2ccccc12)c1ccc(C2CCCCC2)cc1 and report
Reply: 3.27

Task item: // repeat for COc1ccc(-c2ccc(S(=O)(=O)Nc3cc(Sc4nnn[nH]4)c(O)c4ccccc34)cc2)cc1 and report
Reply: 3.45

Task item: // repeat for O=S(=O)(Nc1cc(Sc2ncn[nH]2)c(O)c2ccccc12)c1ccc(-c2ccc(C(F)(F)F)cc2)cc1 and report
Reply: 3.86

Task item: // repeat for O=S(=O)(Nc1cc(Sc2nnn[nH]2)c(O)c2ccccc12)c1ccc(-c2ccc(F)cc2)cc1 and report
Reply: 3.30

Task item: // repeat for O=S(=O)(Nc1cc(Sc2ncn[nH]2)c(O)c2ccccc12)c1ccc(-c2ccccc2)cc1 and report
Reply: 3.63
